Source listed as PubChem BioAssay (NCI).

growth: recorded values
# System: EKVX NSCLC
# test_protocol: NCI-60 one-dose screen, 48 h (100 = growth as untreated, 0 = no growth, -100 = all killed)
# applied_conditions: 10 µM unless noted
The panel holds about 83,000 compounds, 20% with a hit somewhere; the sample as a whole holds those more often.

| compound | growth / % |
| --- | --- |
| CC(C)N(Cc1ccccc1)c1c(S)ssc1=S | 5.44 |
| COC(=O)N/N=C/c1coc2ccc(Cl)cc2c1=O | 85.4 |
| CCOc1nc(-c2ccco2)n2nc(-c3ccco3)cc2n1 | 95 |
| O=C1OC2(c3ccccc31)c1ccccc1-c1ccccc12 | 87.9 |
| CCCCCCCCCCNCCSS(=O)(=O)O | 101 |
| OC(c1ccccc1)C(NCc1ccccc1)c1ccccc1 (configuration not stated) | 86 |
| COC(=O)C1=CCC(n2cnc3c(N)ncnc32)O1 (configuration not stated) | 101 |

----------
# Test system: BT-549 breast
# test_protocol: NCI-60 one-dose screen, 48 h (100 = growth as untreated, 0 = no growth, -100 = all killed)
# applied_conditions: 10 µM unless noted
Compounds without any hit were thinned out: in the full panel of roughly 83,000, 20% have a hit. The source made the active and inactive calls. How the source made its calls: active means growth percent below 10; inactive means the rest.
growth: recorded values

| compound | growth |
| --- | --- |
| CC(=O)[C@H]1CC[C@H]2[C@@H]3C[C@H](C)C4=CC(=O)CC[C@]4(C)[C@H]3C(=O)C[C@]12C | 98% (inactive) |
| O=C(CNC(=O)c1cccc2ccccc12)Nc1ccccc1Oc1cccc(O)c1 | 18.7% [5 µM] (inactive) |
| Nc1ccc2c(c1)Cc1cc(Cl)c(Cl)cc1-2 | 60.4% (inactive) |
| Clc1ccc(C2=NN(c3ccc(Cl)cc3)C(c3cccc(Nc4ccnc5cc(Cl)ccc45)c3)C2)cc1 (stereo not given) | 68.4% (inactive) |
| CCOC(CNCc1cc(C)c2[nH]c3ccccc3c2c1C)OCC | 76.4% (inactive) |

----------
# Tested on: HCC-2998 colon
# test_protocol: NCI-60 one-dose screen, 48 h
# applied_conditions: 10 µM unless noted
About 83,000 compounds went through this panel and 20% of them were active in at least one assay; those are over-represented in the sample as a whole. Active and inactive are the calls of the source. Rule for the calls: active = growth percent below 10; inactive = the rest.
Possible outcomes: active, inactive

| molecule | assigned_category |
| --- | --- |
| CCCCCCCCCCCCC1CCCC(C)C1 (centres undefined) | inactive |
| CC(C)CC1NC(=O)C(CCCN)NC(=O)C(C(C)C)NC(=O)C2CCCN2C(=O)C(Cc2ccccc2)NC(=O)C(CC(C)C)NC(=O)C(CCCN)NC(=O)C(C(C)C)NC(=O)C2CCCN2C(=O)C(Cc2ccccc2)NC1=O (centres undefined) | active |
| CCOC(=O)c1sc(NC(=O)COc2cccc(/C=C3\Cc4ccc(Cl)cc4C3=O)c2)nc1C | active |
| O=C1CSC(c2ccccc2Cl)N1c1nnc(Cn2nnc3ccccc32)o1 (centres undefined) | inactive |
| Nc1nc2c(nnn2Cc2ccc(Cl)c(Cl)c2)c(=O)[nH]1 | inactive |
| COc1ccc2nc(NC(=O)CN3CCn4c(nnc4C(F)(F)F)C3)sc2c1 | inactive |
| CCOC(=O)c1cc2oc(/C=C/c3cc(=O)c4cc(Cl)ccc4o3)cc2[nH]1 | inactive |
| CC[N+](CCCCCCCCCC[N+](CC)(c1ccccn1)c1ccccn1)(c1ccccn1)c1ccccn1 | inactive |
| CCSc1nc(-c2cccs2)n2nc(-c3ccco3)cc2n1 | inactive |

----------
# Tested on: LOX IMVI melanoma
# test_protocol: NCI-60 one-dose screen, 48 h
# applied_conditions: 10 µM unless noted
This is part of a sample that, as a whole, favours compounds with a hit. Of some 83,000 tested, about 20% had one in any assay. Calls of active or inactive are those of the source. Rule for the calls: active = growth percent below 10; inactive = the rest.
Possible outcomes: active, inactive

| molecule | assigned_category |
| --- | --- |
| COC(=O)c1c(NC(=O)CSc2nnnn2-c2ccc(OC)cc2)sc(C)c1C | inactive |
| COc1cc(C2CC(C3C(=O)N(C)C(=O)N(C)C3=O)=NN2C=O)cc(OC)c1OC (centres undefined) | inactive |
| COc1cc(/C=N/OC(=O)Nc2ccccc2)cc(OC)c1OC | inactive |
| COc1cc(/C=C/c2cc(/C=C/c3ccc(O)c(OC)c3)n(C(=O)Cc3ccccc3)n2)ccc1O | active |
| Cc1csc(C#Cc2cncc(O)c2)n1 | inactive |
| CCOc1cc(/C=C/C(=O)CC(=O)/C=C/c2ccc(OC(=O)CNCCN(CC)CC)c(OCC)c2)ccc1OC(=O)CNCCN(CC)CC | active |
| Cc1cc(C)nc(NS(=O)(=O)c2ccc(Nc3nc4nc(SCc5ccccc5)nc(-c5ccc(O)cc5)c4c(=O)[nH]3)cc2)n1 | inactive |
| CC(C)=CCCC(C)c1ccc(C)c2c1OCN(CC1CCNCC1)C2 (centres undefined) | active |
| CCCn1c(N)c(C(=O)CNc2ccc(I)cc2)c(=O)[nH]c1=O | inactive |

----------
# System: OVCAR-3 ovarian
# test_protocol: NCI-60 one-dose screen, 48 h (100 = growth as untreated, 0 = no growth, -100 = all killed)
# applied_conditions: 10 µM unless noted
About 83,000 compounds went through this panel and 20% of them were active in at least one assay; those are over-represented in the sample as a whole.

| compound | system | growth, % |
| --- | --- | --- |
| Cc1cc(C)cc(S(=O)(=O)n2ccc(-c3ccc4c(c3)CCC(C)(C)O4)n2)c1 | OVCAR-3 ovarian | 87.9 |
| CN(C)CCCNc1nn2c(=O)c3ccccc3nc2c2ccccc12 | OVCAR-3 ovarian | 57.7 |
| N[C@H](CS)C(=O)O | OVCAR-3 ovarian | 122 |
| COc1cnc2c(c1)C(=O)c1c-2n(CCCN2CCCC2)c(=O)c2cc(F)ccc12 | OVCAR-3 ovarian | -29.1 |
| CC(C)C[C@H](NC(=O)/C=C/Cn1ccc2ccccc2c1=O)B(O)O | OVCAR-3 ovarian | 0.848 |
| C(#Cc1ccccc1C#Cc1ccccn1)c1ccc(OCCCCCCOc2ccc(C#Cc3ccccc3C#Cc3ccccn3)cc2)cc1 | OVCAR-3 ovarian | 35.5 |
| O=C1C=CC(=O)N1c1ccccc1N1C(=O)C=CC1=O | OVCAR-3 ovarian | 103 |
| N#Cc1c(-c2ccccc2)cc(-c2ccccc2)n(CCCCC(=O)O)c1=O | OVCAR-3 ovarian | 101 |
| COc1ccc(C2CC(c3ccc4c(c3)OCO4)=NN2C=O)cc1 (stereo not given) | OVCAR-3 ovarian | 128 |
| COc1cc(/C=C2\CN(S(=O)(=O)c3ccc(C)cc3)C/C(=C\c3cc(CN4CCOCC4)c(O)c(OC)c3)C2=O)cc(CN2CCOCC2)c1O | OVCAR-3 ovarian | -17.3 |

----------
growth: recorded values
# Test system: SK-MEL-2 melanoma
# test_protocol: NCI-60 one-dose screen, 48 h (100 = growth as untreated, 0 = no growth, -100 = all killed)
# applied_conditions: 10 µM unless noted
# Protocol: Growth inhibition of the SK-MEL-2 human tumor cell line is measured as a screen for anti-cancer activity. Cells are grown in 96 well plates and exposed to the test compound for 48 hours. Compounds are tested at a single concentration, which is 10^-5 M for most compounds. The reported endpoint is percent growth (GI% or GIPRCNT), where numbers from 0 - 100% represent growth inhibition, and numbers from -100% - 0 represent cell death. For example, a value of 40 represents 60% growth inhibition. […]
Compounds without any hit were thinned out: in the full panel of roughly 83,000, 20% have a hit.

| molecule | measurement_unit | growth |
| --- | --- | --- |
| CO[C@H]1/C=C/O[C@@]2(C)Oc3c(C)c(O)c4c(O)c(c(/C=N/N5C(C)CN(Cc6ccc(C#N)cc6)CC5C)c(O)c4c3C2=O)NC(=O)/C(C)=C\C=C\[C@H](C)[C@H](O)[C@@H](C)[C@@H](O)[C@@H](C)[C@H](OC(C)=O)[C@@H]1C (some centres undefined) | % | 61.2 |
| O=C(Nc1cccc(Cl)c1)Nc1cccc(Cl)c1 | % | 114 |
| COc1ccc(/C=C2/SC(=Nc3c(C)nn(-c4ccccc4)c3N)NC2=O)cc1 | % | 39.1 |
| COc1ccc(/C=C/C(=O)c2cccc(NS(C)(=O)=O)c2)cc1 | % | 114 |

----------
# Tested on: OVCAR-8 ovarian
# test_protocol: NCI-60 one-dose screen, 48 h
# applied_conditions: 10 µM unless noted
About 83,000 compounds went through this panel and 20% of them were active in at least one assay; those are over-represented in the sample as a whole. Calls of active or inactive are those of the source. The calls were made as follows: active = growth percent below 10; inactive = the rest.
Possible outcomes: 1.0 (active), 0.0 (inactive)

| compound | assigned_category |
| --- | --- |
| O=c1c2ccccc2c2nccn2c2cc(Cl)ccc12 | 0.0 |
| CC[n+]1c(/C=C/c2ccc(N3CCCC3)cc2)cccc1/C=C/c1ccc(N2CCCC2)cc1 | 1.0 |
| O=C(COc1cccc(/C=C2\Oc3ccc4ccccc4c3C2=O)c1)c1ccc(Cl)cc1 | 0.0 |
| O=C(CSc1nnc(-c2cc(-c3ccccc3)nc3ccccc23)o1)c1ccc(Br)cc1 | 0.0 |
| COc1cc(/C=C/C(=O)CC(=O)/C=C/c2ccc(OC(=O)C3C4CC5CC(C4)CC3C5)c(OC)c2)ccc1OC(=O)C1C2CC3CC(C2)CC1C3 (stereo not given) | 0.0 |
| CC(C)=CCCC(C)c1ccc(C)c2c1OCN(CC1CCNCC1)C2 (stereo not given) | 0.0 |
| O=C(Oc1ccccc1)C(Br)C(Br)c1ccccc1 (stereo not given) | 0.0 |
| Cc1sc2nc(NCc3ccccc3)[nH]c(=O)c2c1C | 0.0 |
| FCc1ncc(-c2ccc(C(F)(F)F)cc2)c(NC2CCCCCC2)n1 | 0.0 |
| COc1ccc2c(c1)[n+](=O)c(/C=C/C(=O)c1cc(OC)c(OC)c(OC)c1)c(C)n2[O-] | 1.0 |
